assayed system: Human Calpain 1/NS1 (Homo sapiens)
protocol text: Biochemical inhibition of calpain 1, continuous fluorescence (FRET substrate) assay
setup conditions: mean, read-out: Human Calpain 1/NS1 IC50 (nM)_MEAN
Method: Calpain 1, 2, and 9 activity and inhibition thereof are assessed by means of a continuous fluorescence assay. The SensoLyte 520 Calpain substrate (Anaspec Inc) is optimized for detecting calpain activity. This substrate contains a novel internally quenched 5-FAM/QXL™ 520 FRET pair. Calpains 1, 2, and 9 cleave the FRET substrate into two separate fragments resulting in an increase of 5-FAM fluorescence that is proportional to calpain activity. […]
IC50: recorded values

Solved entries (count: 3):
molecule	quantity	meas value
O=C[C@@H]1Cc2ccc(cc2)OCC=CCOc2ccc3nn(cc3c2)-c2ncccc2C(=O)N1	IC50	< 3000 nM
O=C[C@@H]1Cc2ccccc2CCCOCc2ccccc2C(=O)N1	IC50	< 3000 nM
CC(C)(NC(=O)C(=O)C1CCCCOCCOCc2ccccc2C(=O)N1)c1cccnc1 (stereo not shown)	IC50	> 10000 nM

Now consider a different molecule.
Item O=C[C@@H]1CC=CCCCCOc2ccccc2C(=O)N1 (mixture of isomers) has what recorded IC50?
> 10000 nM

###

assayed system: Human Calpain 2/NS1 (Homo sapiens)
Sequence (P17655 whole entry): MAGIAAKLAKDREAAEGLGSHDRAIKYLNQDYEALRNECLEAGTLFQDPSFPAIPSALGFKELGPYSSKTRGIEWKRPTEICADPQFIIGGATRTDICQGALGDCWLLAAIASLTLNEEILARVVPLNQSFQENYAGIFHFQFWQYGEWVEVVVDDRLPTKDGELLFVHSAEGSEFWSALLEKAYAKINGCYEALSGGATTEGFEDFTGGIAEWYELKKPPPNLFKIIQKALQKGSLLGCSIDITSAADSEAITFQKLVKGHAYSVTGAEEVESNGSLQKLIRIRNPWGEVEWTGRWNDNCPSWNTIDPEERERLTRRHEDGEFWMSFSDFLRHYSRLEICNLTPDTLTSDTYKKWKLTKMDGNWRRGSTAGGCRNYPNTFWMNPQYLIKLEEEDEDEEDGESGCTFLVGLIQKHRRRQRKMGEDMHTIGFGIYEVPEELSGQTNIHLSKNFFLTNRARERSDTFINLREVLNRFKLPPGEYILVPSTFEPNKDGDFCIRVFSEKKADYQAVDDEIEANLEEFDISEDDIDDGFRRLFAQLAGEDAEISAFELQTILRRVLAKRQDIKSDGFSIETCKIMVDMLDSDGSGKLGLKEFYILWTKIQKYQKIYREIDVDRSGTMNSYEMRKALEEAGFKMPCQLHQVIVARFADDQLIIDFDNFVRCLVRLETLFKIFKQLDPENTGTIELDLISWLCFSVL
Sequence (P04632 whole entry partner): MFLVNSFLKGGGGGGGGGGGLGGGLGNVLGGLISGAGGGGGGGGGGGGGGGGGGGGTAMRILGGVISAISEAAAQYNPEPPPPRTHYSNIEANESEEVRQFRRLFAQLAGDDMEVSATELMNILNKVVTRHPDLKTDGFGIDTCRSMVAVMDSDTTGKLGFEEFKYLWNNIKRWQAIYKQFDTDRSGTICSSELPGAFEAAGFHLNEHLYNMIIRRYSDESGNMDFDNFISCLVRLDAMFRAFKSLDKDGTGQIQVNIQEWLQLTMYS
protocol text: Biochemical inhibition of calpain 2, continuous fluorescence (FRET substrate) assay
setup conditions: mean, read-out: Human Calpain 2/NS1 IC50 (nM)_MEAN
Recorded IC50 for the following compounds

compound	IC50
O=C(NC1CC1)C(=O)[C@@H]1Cc2ccc(cc2)OCCCCOc2cccc(c2)-c2ccn(n2)-c2ncccc2C(=O)N1	< 3000 nM
O=C[C@@H]1CCCCCCOc2ccccc2C(=O)N1	< 3000 nM

Requested field: IC50. Item: O=C(NCc1ccc(OC(F)(F)F)cc1)C(=O)C1CCCCOCCOCc2ccccc2C(=O)N1 (centres unmarked)
> 10000 nM

Find the recorded IC50 belonging to O=C[C@@H]1Cc2ccccc2C=CCCCCOc2ccccc2C(=O)N1 and report it.
< 3000 nM

# get_value(readout='IC50', item= O=C(NCCc1ccc(Cl)cc1)C(=O)[C@@H]1C/C=C/COCCOCc2ccccc2C(=O)N1 )
3000 to 10000 nM

###

assayed system: Human Calpain 1/NS1 (Homo sapiens)
protocol text: Biochemical inhibition of calpain 1, continuous fluorescence (FRET substrate) assay
setup conditions: mean, read-out: Human Calpain 1/NS1 IC50 (nM)_MEAN
quantity: IC50

# annotated cases, reported IC50 shown
compound	IC50
C#CCNC(=O)C(=O)C1CCCCOCCOCc2ccccc2C(=O)N1 (stereo not drawn) [Compound 85]	> 10000 nM
C/C1=C\C[C@@H](C(=O)C(N)=O)NC(=O)c2cc(C)nn2-c2cccc(c2)OCC1 [Compound 145]	< 3000 nM
NC(=O)C(O)[C@@H]1CCCCCOc2ccnc(n2)-c2ccccc2C(=O)N1 (stereo partly drawn) [Compound 147]	> 10000 nM

We next turn to a different compound, shown below.
IC50 for O=C[C@@H]1CC=CCCCCCc2ccccc2C(=O)N1 [Compound 14] ?
3000 to 10000 nM

###

assayed system: Human Calpain 1/NS1 (Homo sapiens, UniProt P07384)
Sequence (P07384 whole entry): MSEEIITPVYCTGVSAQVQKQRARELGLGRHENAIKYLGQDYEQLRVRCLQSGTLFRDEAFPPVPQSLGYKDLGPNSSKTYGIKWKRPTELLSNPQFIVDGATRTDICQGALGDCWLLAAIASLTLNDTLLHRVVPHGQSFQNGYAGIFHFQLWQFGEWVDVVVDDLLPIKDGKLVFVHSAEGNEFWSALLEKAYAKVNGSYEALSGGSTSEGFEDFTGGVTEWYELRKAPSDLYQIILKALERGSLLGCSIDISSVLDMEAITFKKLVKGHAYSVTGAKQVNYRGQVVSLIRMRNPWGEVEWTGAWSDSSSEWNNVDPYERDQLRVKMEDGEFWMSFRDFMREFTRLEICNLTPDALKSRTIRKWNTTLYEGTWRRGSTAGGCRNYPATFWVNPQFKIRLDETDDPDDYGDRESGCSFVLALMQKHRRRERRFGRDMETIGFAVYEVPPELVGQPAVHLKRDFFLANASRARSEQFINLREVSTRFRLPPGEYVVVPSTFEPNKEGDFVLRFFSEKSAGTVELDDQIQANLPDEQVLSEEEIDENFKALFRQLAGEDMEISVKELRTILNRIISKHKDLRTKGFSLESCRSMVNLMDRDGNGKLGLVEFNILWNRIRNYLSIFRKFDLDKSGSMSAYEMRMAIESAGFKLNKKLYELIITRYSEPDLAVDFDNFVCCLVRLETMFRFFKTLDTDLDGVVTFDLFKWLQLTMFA
Sequence (P04632 whole entry partner): as the sequence (P04632 whole entry partner) above
protocol text: Biochemical inhibition of calpain 1, continuous fluorescence (FRET substrate) assay
setup conditions: mean, read-out: Human Calpain 1/NS1 IC50 (nM)_MEAN
Recorded IC50, one value per entry.

Recorded results for 10 molecules are shown here.
molecule	IC50
O=C[C@@H]1CCCCCOc2cccc(c2)-c2ncccc2C(=O)N1 [Compound 38]	< 3000 nM
O=C[C@@H]1Cc2ccccc2CCCCCCOc2ccccc2C(=O)N1 [Compound 20]	3000 to 10000 nM
O=C(NCc1ccccc1)C(=O)[C@@H]1CC=CCCCCOc2ccccc2C(=O)N1 [Compound 7]	> 10000 nM
O=C(NCc1ccccc1)C(=O)[C@@H]1C/C=C\COCCOCc2ccccc2C(=O)N1 [Compound 3]	> 10000 nM
O=C[C@@H]1CCCCCOc2ccnc(n2)-c2ccccc2C(=O)N1 [Compound 139]	< 3000 nM
O=C[C@@H]1C/C=C/COCCOCc2ccccc2C(=O)N1 [Compound 2]	> 10000 nM
O=C[C@@H]1C/C=C/CCCOc2ccccc2C(=O)N1 [Compound 21]	> 10000 nM
O=C[C@@H]1CCCCCCOc2ccnc(c2)-c2ccccc2C(=O)N1 [Compound 131]	< 3000 nM
O=C[C@@H]1CC=CCOCCOc2ccccc2C(=O)N1 [Compound 18]	> 10000 nM
NC(=O)C(=O)[C@@H]1CCCCCOc2ccc(F)c(c2)-c2ccccc2C(=O)N1 [Compound 148]	< 3000 nM

Give the measured IC50 of CCNC(=O)C(=O)[C@@H]1CCCCCCCCCCc2ccccc2C(=O)N1 [Compound 34] .
> 10000 nM

Data request, read-out IC50, for O=C[C@@H]1CC=CCCCCCc2ncccc2C(=O)N1 [Compound 50]
> 10000 nM

Could you tell me which IC50 is on file for CC(C)CCNC(=O)C(=O)C1CCCCOCCOCc2ccccc2C(=O)N1 (centres unmarked) [Compound 90] ?
> 10000 nM

# lookup: IC50 of O=C(NCc1ccncc1)C(=O)C1CCCCOCCOCc2ccccc2C(=O)N1 (centres unmarked) [Compound 117]
> 10000 nM

Numbers sourced from patent US11292801B2.
